method-description: Pharmacokinetics and renal clearance of a renal marker cocktail after IV bolus in 7-week-old male pigs
condition-parameters: male, Landrace × Large White × Maximus (Seghers Hybrid), pig, plasma, iv, 0.5 mg/kg
readout-name: Vd (L/kg)

1) OC(Cn1cncn1)(Cn1cncn1)c1ccc(F)cc1F :: 0.98

* * *

method-description: Pharmacokinetics and renal clearance of a renal marker cocktail after IV bolus in 7-week-old male pigs
condition-parameters: male, Landrace × Large White × Maximus (Seghers Hybrid), pig, plasma, intravenous, 64.7 mg/kg BW
readout-name: clearance

1. CC(=O)N(CC(O)CO)c1c(I)c(C(=O)NCC(O)CO)c(I)c(C(=O)NCC(O)CO)c1I (stereo not shown) [Iohexol, iohexol] :: 4.12 mL/min/kg

* * *

method-description: Pharmacokinetics and renal clearance of a renal marker cocktail after IV bolus in 7-week-old male pigs
condition-parameters: male, Landrace × Large White × Maximus (Seghers Hybrid), pig, plasma, iv, 0.5 mg/kg
readout-name: half-life (h)

1) OC(Cn1cncn1)(Cn1cncn1)c1ccc(F)cc1F :: 25.7

* * *

method-description: Pharmacokinetics and renal clearance of a renal marker cocktail after IV bolus in 7-week-old male pigs
condition-parameters: male, Landrace × Large White × Maximus (Seghers Hybrid), pig, plasma, iv, 0.5 mg/kg
readout-name: clearance (mL/min/kg)

1. OC(Cn1cncn1)(Cn1cncn1)c1ccc(F)cc1F :: 0.45

* * *

method-description: Pharmacokinetics and renal clearance of a renal marker cocktail after IV bolus in 7-week-old male pigs
condition-parameters: male, Landrace × Large White × Maximus (Seghers Hybrid), pig, plasma and urine, iv, 0.5 mg/kg, CLR, IV bolus, 7-week-old male pigs; n = 6; Ae/AUC0→inf (fluconazole: Ae 48 h/AUC0→48h); mean ± SD
readout-name: CL renal (mL/min/kg)

1) OC(Cn1cncn1)(Cn1cncn1)c1ccc(F)cc1F :: 0.32

* * *

Here, each record is paired with measured clearance data.
method-description: Pharmacokinetics and renal clearance of a renal marker cocktail after IV bolus in 7-week-old male pigs
condition-parameters: male, Landrace × Large White × Maximus (Seghers Hybrid), pig, plasma, iv
readout-name: clearance (mL/min/kg)

1) OC(Cn1cncn1)(Cn1cncn1)c1ccc(F)cc1F :: 0.45
2) CC(=O)N(CC(O)CO)c1c(I)c(C(=O)NCC(O)CO)c(I)c(C(=O)NCC(O)CO)c1I (centres unmarked) [Iohexol, iohexol] :: 4.12

FYI, the data here is from paper PMC7303324.
